assay remarks: in vivo
Set-up: species or system mice
stated conditions: male, NOD.Cg-Rag1tm1Mom Il2rgtm1Wjl/SzJ (NRG), mouse, iv, total radioactivity, Biodistribution: Adrenals
Where a SMILES comes first, the peptide text is derived from it. Bridges are numbered along the chain shown (N, C = ends). [ ]: non-standard residue; d: D form. The star is where a group is joined. X3 = O=C(O)CN1CCN(CC(=O)O)CCN(CC(=O)N[C@@H](CS(=O)(=O)O)C(=O)N[C@@H](CCCCNC(=O)CCCc2ccc(Br)cc2)C(=O)*)CCN(CC(=O)O)CC1; X1 = O=C(O)CN1CCN(CC(=O)O)CCN(CC(=O)N[C@@H](CS(=O)(=O)O)C(=O)N[C@@H](CCCCNC(=O)CCCc2ccc(I)cc2)C(=O)*)CCN(CC(=O)O)CC1; 2Nal = N[C@@H](Cc1ccc2ccccc2c1)C(=O)O; Lys(iPr) = CC(C)NCCCC[C@H](N)C(=O)O
tissue uptake at 120 h values by entry
# value in %ID/g; strip the unit string

molecule	readout name	observed value
CC(C)NCCCC[C@H](NC(=O)[C@H]1CCC(=O)N[C@@H](CCCCNC(=O)[C@H](CCCCNC(=O)CCCc2ccc(Br)cc2)NC(=O)[C@H](CS(=O)(=O)O)NC(=O)CN2CCN(CC(=O)O)CCN(CC(=O)O)CCN(CC(=O)O)CC2)C(=O)N[C@@H](Cc2ccc(O)cc2)C(=O)N[C@@H](CCCCNC(C)C)C(=O)N[C@H](CCCNC(=N)N)C(=O)N[C@@H](Cc2ccc3ccccc3c2)C(=O)N[C@H](C)C(=O)N1)C(N)=O [[^177Lu]Lu-BL34L20, metal not drawn] (K(X3)Y[Lys(iPr)][dR][2Nal][dA][dE][Lys(iPr)]-NH2; lactam N-7)	tissue uptake at 120 h	1.24

QUERY: Return reported tissue uptake at 120 h. Input molecule: CC(C)NCCCC[C@H](NC(=O)[C@H]1CCC(=O)N[C@@H](CCCCNC(=O)[C@H](CCCCNC(=O)CCCc2ccc(I)cc2)NC(=O)[C@H](CS(=O)(=O)O)NC(=O)CN2CCN(CC(=O)O)CCN(CC(=O)O)CCN(CC(=O)O)CC2)C(=O)N[C@@H](Cc2ccc(O)cc2)C(=O)N[C@@H](CCCCNC(C)C)C(=O)N[C@H](CCCNC(=N)N)C(=O)N[C@@H](Cc2ccc3ccccc3c2)C(=O)N[C@H](C)C(=O)N1)C(N)=O [[^177Lu]Lu-BL34L11, metal not drawn] (K(X1)Y[Lys(iPr)][dR][2Nal][dA][dE][Lys(iPr)]-NH2; lactam N-7)
RESULT: 1.62

###

tissue to tissue ratio at 3 h values by entry
assay remarks: in vivo
Set-up: species or system mice
stated conditions: male, NOD.Cg-Rag1tm1Mom Il2rgtm1Wjl/SzJ (NRG), mouse, iv, total radioactivity, Ratio Tumor-to-Kidney
Where a SMILES comes first, the peptide text is derived from it. Bridges are numbered along the chain shown (N, C = ends). [ ]: non-standard residue; d: D form. The star is where a group is joined. X4 = O=C(O)CN1CCN(CC(=O)O)CCN(CC(=O)N[C@@H](CS(=O)(=O)O)C(=O)NCCCC[C@H](NC(=O)CNC(=O)CCCc2ccc(Cl)cc2)C(=O)*)CCN(CC(=O)O)CC1; X3 = O=C(O)CN1CCN(CC(=O)O)CCN(CC(=O)N[C@@H](CS(=O)(=O)O)C(=O)N[C@@H](CCCCNC(=O)CCCc2ccc(Br)cc2)C(=O)*)CCN(CC(=O)O)CC1; X5 = O=C(O)CN1CCN(CC(=O)O)CCN(CC(=O)N[C@@H](CS(=O)(=O)O)C(=O)N[C@@H](CCCCNC(=O)CCCc2ccc(Cl)cc2)C(=O)*)CCN(CC(=O)O)CC1; X1 = O=C(O)CN1CCN(CC(=O)O)CCN(CC(=O)N[C@@H](CS(=O)(=O)O)C(=O)N[C@@H](CCCCNC(=O)CCCc2ccc(I)cc2)C(=O)*)CCN(CC(=O)O)CC1; 2Nal = N[C@@H](Cc1ccc2ccccc2c1)C(=O)O; Lys(iPr) = CC(C)NCCCC[C@H](N)C(=O)O
Keep it simple and answer with nothing but the number.

compound	observed value
CC(C)NCCCC[C@H](NC(=O)[C@H]1CCC(=O)N[C@@H](CCCCNC(=O)[C@H](CCCCNC(=O)[C@H](CS(=O)(=O)O)NC(=O)CN2CCN(CC(=O)O)CCN(CC(=O)O)CCN(CC(=O)O)CC2)NC(=O)CNC(=O)CCCc2ccc(Cl)cc2)C(=O)N[C@@H](Cc2ccc(O)cc2)C(=O)N[C@@H](CCCCNC(C)C)C(=O)N[C@H](CCCNC(=N)N)C(=O)N[C@@H](Cc2ccc3ccccc3c2)C(=O)N[C@H](C)C(=O)N1)C(N)=O [[68Ga]Ga-BL34T1, metal not drawn] (K(X4)Y[Lys(iPr)][dR][2Nal][dA][dE][Lys(iPr)]-NH2; lactam N-7)	5.78
CC(C)NCCCC[C@H](NC(=O)[C@H]1CCC(=O)N[C@@H](CCCCNC(=O)[C@H](CCCCNC(=O)CCCc2ccc(Cl)cc2)NC(=O)[C@H](CS(=O)(=O)O)NC(=O)CN2CCN(CC(=O)O)CCN(CC(=O)O)CCN(CC(=O)O)CC2)C(=O)N[C@@H](Cc2ccc(O)cc2)C(=O)N[C@@H](CCCCNC(C)C)C(=O)N[C@H](CCCNC(=N)N)C(=O)N[C@@H](Cc2ccc3ccccc3c2)C(=O)N[C@H](C)C(=O)N1)C(N)=O [[^68Ga]Ga-BL34L16, metal not drawn] (K(X5)Y[Lys(iPr)][dR][2Nal][dA][dE][Lys(iPr)]-NH2; lactam N-7)	6.92
CC(C)NCCCC[C@H](NC(=O)[C@H]1CCC(=O)N[C@@H](CCCCNC(=O)[C@H](CCCCNC(=O)CCCc2ccc(Br)cc2)NC(=O)[C@H](CS(=O)(=O)O)NC(=O)CN2CCN(CC(=O)O)CCN(CC(=O)O)CCN(CC(=O)O)CC2)C(=O)N[C@@H](Cc2ccc(O)cc2)C(=O)N[C@@H](CCCCNC(C)C)C(=O)N[C@H](CCCNC(=N)N)C(=O)N[C@@H](Cc2ccc3ccccc3c2)C(=O)N[C@H](C)C(=O)N1)C(N)=O [[^177Lu]Lu-BL34L20, metal not drawn] (K(X3)Y[Lys(iPr)][dR][2Nal][dA][dE][Lys(iPr)]-NH2; lactam N-7)	3.93

Next up:
QUERY: Return reported tissue to tissue ratio at 3 h. Input compound: CC(C)NCCCC[C@H](NC(=O)[C@H]1CCC(=O)N[C@@H](CCCCNC(=O)[C@H](CCCCNC(=O)CCCc2ccc(I)cc2)NC(=O)[C@H](CS(=O)(=O)O)NC(=O)CN2CCN(CC(=O)O)CCN(CC(=O)O)CCN(CC(=O)O)CC2)C(=O)N[C@@H](Cc2ccc(O)cc2)C(=O)N[C@@H](CCCCNC(C)C)C(=O)N[C@H](CCCNC(=N)N)C(=O)N[C@@H](Cc2ccc3ccccc3c2)C(=O)N[C@H](C)C(=O)N1)C(N)=O [[^68Ga]Ga-BL34L11, metal not drawn] (K(X1)Y[Lys(iPr)][dR][2Nal][dA][dE][Lys(iPr)]-NH2; lactam N-7)
RESULT: 2.91
